Field: Binding Score. Provide a value for each of the sequences that follow.
Target: MHC-II DRB1*03:01 (Homo sapiens, UniProt P01903+P01911, A100K/A102G/A103R/A169T/F55Y/I96L/K41T/L162R/M171V/P40S/Q125H/Q178H/Q39Y/R42S/S66N/T106N/T262R/W38E/Y61H)
Sequence (P01903 26-254 limits assumed, other chains not shown): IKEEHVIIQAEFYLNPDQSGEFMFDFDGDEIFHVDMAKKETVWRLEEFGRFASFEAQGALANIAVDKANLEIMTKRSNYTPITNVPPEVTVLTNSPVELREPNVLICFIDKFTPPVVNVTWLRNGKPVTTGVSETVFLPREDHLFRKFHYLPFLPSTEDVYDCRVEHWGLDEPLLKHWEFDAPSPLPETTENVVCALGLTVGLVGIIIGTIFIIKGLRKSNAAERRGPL
Test: Cell-free REVEAL class II binding assay
Conditions: signal of test peptide as percentage of allele-specific positive control peptide, fluorescence, conformation-specific monoclonal antibody
Reply numerically in %, unit not repeated.

Lab note: YISQFIIMYSLDGKK [synthetic wild type FVIII 15 mer peptide] gave Binding Score of 1.8

Lab note: VVNSLDPPLLTRYLR [synthetic wild type FVIII 15 mer peptide] gave Binding Score of 2.7

Lab note: IIMYSLDGKKWQTYR [synthetic wild type FVIII 15 mer peptide] gave Binding Score of 6.0

Lab note: LFLLSTRQNVEGSYD [synthetic wild type FVIII 15 mer peptide, region of ns-SNP D1241E] gave Binding Score of 30.5

Lab note: AVGVSYWKASEGAEY [synthetic wild type FVIII 15 mer peptide] gave Binding Score of 0.0

Lab note: ASEGAEYDDQTSQRE [synthetic wild type FVIII 15 mer peptide] gave Binding Score of 0.0

Lab note: YNIYPHGITDVRPLY [synthetic wild type FVIII 15 mer peptide, region of ns-SNP R484H] gave Binding Score of 0.2

Lab note: SQFIIMYSLDGKKWQ [synthetic wild type FVIII 15 mer peptide] gave Binding Score of 4.8
